System: Staphylococcus aureus
Experiment: Antibacterial activity against Staphylococcus aureus by agar dilution method
Format: functional
measured quantity: MIC

1. O=C(O)c1cn(C2CC2)c2cc(N3CCNCC3)c(F)cc2c1=O [CIPROFLOXACIN] = 0.1 to 2.5 µg/mL

[in] For the compound shown here, "Cc1ccc2c(c1)C(=O)C(=O)N2CN1CCN(c2cc3c(cc2F)c(=O)c(C(=O)O)cn3C2CC2)CC1" , give the reported MIC.
[out] 0.1 to 0.5 µg/mL

[in] Another: "O=C1C(=O)N(CN2CCN(c3cc4c(cc3F)c(=O)c(C(=O)O)cn4C3CC3)CC2)c2ccccc21"
[out] 0.1 to 0.5 µg/mL

[in] Subsequent entry: CCn1cc(C(=O)O)c(=O)c2cc(F)c(N3CCN(CN4C(=O)C(=O)c5cc(C)ccc54)C(C)C3)c(F)c21 (stereo unspecified)
[out] 0.25 to 2.5 µg/mL

[in] Then this compound: CCn1cc(C(=O)O)c(=O)c2cc(F)c(N3CCN(CN4C(=O)C(=O)c5ccccc54)C(C)C3)c(F)c21 (stereo unspecified)
[out] 0.25 to 2.5 µg/mL

[in] Try the compound CCn1cc(C(=O)O)c(=O)c2cc(F)c(N3CCNC(C)C3)c(F)c21 (stereo unspecified) [LOMEFLOXACIN]
[out] 0.1 to 2.5 µg/mL
